REPORTED METRIC: melting point

# example entries with known answers
CCCNS(=O)(=O)NC(=O)c1ccc2nc(C)n(Cc3ccc(C(F)(F)F)cc3Cl)c2c1    202 to 203 °C
CCCNS(=O)(=O)NC(=O)c1ccc2nc(C)n(Cc3ccc(OCC)cc3Cl)c2c1    175.3 to 176.2 °C
CCCNS(=O)(=O)NC(=O)c1ccc2nc(C)n(Cc3ccc(-c4ccco4)cc3Cl)c2c1    177.8 to 180.2 °C

State the recorded melting point for this entry: CCCCCOc1ccc(Cn2c(C)nc3ccc(C(=O)NS(=O)(=O)NCCC)cc32)c(Cl)c1
176.4 to 179.1 °C

State the recorded melting point for this entry: CCCCCS(=O)(=O)NC(=O)c1ccc2nc(C)n(Cc3ccc(N4CCOCC4)cc3Cl)c2c1
205 to 207 °C

State the recorded melting point for this entry: CCNS(=O)(=O)NC(=O)c1ccc2nc(C)n(Cc3ccc(-c4ccco4)cc3Cl)c2c1
190.5 to 192.2 °C

State the recorded melting point for this entry: CCCCC#Cc1ccc(Cn2c(C)nc3ccc(C(=O)NS(=O)(=O)CCCCC)cc32)c(Cl)c1
190 to 191 °C
